// reported EC50 for each item listed
# measurement-notes: Inhibition of NS5A Y93H mutant in HCV genotype 1a assessed as decrease in viral replication

compound	value-operator	EC50 (nM)
COC(=O)N[C@H](C(=O)N1CCC[C@H]1c1ncc(-c2ccc3c(c2)C(C)c2ccc4cc(-c5cnc([C@@H]6CCCN6C(=O)[C@@H](NC(=O)OC)C(C)C)[nH]5)ccc4c2O3)[nH]1)C(C)C (some centres undefined)	=	49
CC[C@H]1c2ccc(-c3cnc([C@@H]4CCCN4C(=O)[C@@H](NC(=O)OC)C4CCOCC4)[nH]3)cc2Oc2ccc3cc(-c4cnc([C@@H]5CCCN5C[C@@H](NC(=O)OC)C5CCOCC5)[nH]4)ccc3c21	=	0.2
COC(=O)N[C@H](C(=O)N1C[C@H](F)C[C@H]1c1ncc(-c2ccc3c(ccc4oc5cc(-c6cnc([C@@H]7C[C@@H](F)CN7C(=O)[C@@H](NC(=O)OC)C(C)C)[nH]6)ccc5c(=O)c43)c2)[nH]1)C(C)C	=	1.2
COC(=O)N[C@H](C(=O)N1CCC[C@H]1c1ncc(-c2ccc3c(F)c4oc5ccc(-c6cnc([C@@H]7CCCN7C(=O)[C@@H](NC(=O)OC)C(C)C)[nH]6)cc5c(=O)c4cc3c2)[nH]1)C(C)C	>	100

====

# measurement-notes: Inhibition of NS5A in HCV genotype 1b assessed as decrease in viral replication
// reported EC50 for each item listed

compound	value-operator	EC50 [pM]
COC(=O)N[C@H](C(=O)N1CCC[C@H]1c1ncc(-c2ccc3c(c2)Oc2ccc4cc(-c5cnc([C@@H]6CCCN6C(=O)[C@@H](NC(=O)OC)C(C)C)[nH]5)ccc4c2[C@H]3C)[nH]1)C(C)C	=	1.6
CCC1c2ccc(-c3cnc([C@@H]4CCCN4C(=O)[C@@H](NC(=O)OC)C(C)C)[nH]3)cc2Oc2ccc(-c3cnc([C@@H]4CCCN4C(=O)[C@@H](NC(=O)OC)C(C)C)[nH]3)cc21 (stereo partly drawn)	=	4
COC(=O)N[C@H](C(=O)N1CCC[C@H]1c1ncc(-c2ccc3c(=O)c4cc(-c5cnc([C@@H]6CCCN6C(=O)[C@@H](NC(=O)OC)C(C)C)[nH]5)ccc4oc3c2)[nH]1)C(C)C	=	2
COC(=O)N[C@H](C(=O)N1CCC[C@H]1c1ncc(-c2ccc3c(ccc4oc5ccc(-c6cnc([C@@H]7CCCN7C(=O)[C@@H](NC(=O)OC)C(C)C)[nH]6)cc5c(=O)c43)c2)[nH]1)C(C)C	=	100
COC(=O)N[C@H](C(=O)N1CCC[C@H]1c1ncc(-c2ccc3c(c2)Oc2ccc4cc(-c5cnc([C@@H]6CCCN6C[C@@H](NC(=O)OC)C6CCOCC6)[nH]5)ccc4c2[C@H]3C)[nH]1)C1CCOCC1	=	4
COC(=O)N[C@H](C(=O)N1CCC[C@H]1c1ncc(-c2ccc3c(c2)Oc2ccc4cc(-c5cnc([C@@H]6CCCN6C(=O)[C@@H](NC(=O)OC)C(C)C)[nH]5)ccc4c2[C@@H]3C)[nH]1)C(C)C	=	3.6
COC(=O)N[C@H](C(=O)N1CCC[C@H]1c1ncc(-c2ccc3c(F)c4oc5ccc(-c6cnc([C@@H]7CCCN7C(=O)[C@@H](NC(=O)OC)C(C)C)[nH]6)cc5c(=O)c4cc3c2)[nH]1)C(C)C	>	1000
COC(=O)N[C@H](C(=O)N1C[C@H](F)C[C@H]1c1ncc(-c2ccc3c(ccc4oc5cc(-c6cnc([C@@H]7C[C@@H](F)CN7C(=O)[C@@H](NC(=O)OC)C(C)C)[nH]6)ccc5c(=O)c43)c2)[nH]1)C(C)C	=	4.5
COC(=O)N[C@H](C(=O)N1CCC[C@H]1c1ncc(-c2ccc3c(c2)Oc2ccc4cc(-c5cnc([C@@H]6CCCN6C[C@@H](NC(=O)OC)C6CCOCC6)[nH]5)ccc4c2C3(C)C)[nH]1)C1CCOCC1	=	4
CC[C@@H]1c2ccc(-c3cnc([C@@H]4CCCN4C(=O)[C@@H](NC(=O)OC)C4CCOCC4)[nH]3)cc2Oc2ccc3cc(-c4cnc([C@@H]5CCCN5C[C@@H](NC(=O)OC)C5CCOCC5)[nH]4)ccc3c21	=	4
COC(=O)N[C@H](C(=O)N1CCC[C@H]1c1nc(-c2ccc3c(c2)O[C@@H](c2ccccc2)n2c-3cc3cc(-c4c[nH]c([C@@H]5CCCN5C(=O)[C@@H](NC(=O)OC)C(C)C)n4)ccc32)c[nH]1)C(C)C	=	3
COC(=O)N[C@H](C(=O)N1CCC[C@H]1c1ncc(-c2ccc3c(ccc4oc5cc(-c6cnc([C@@H]7CCCN7C(=O)[C@@H](NC(=O)OC)C(C)C)[nH]6)ccc5c(=O)c43)c2)[nH]1)C(C)C	=	3
COC(=O)N[C@H](C(=O)N1CCC[C@H]1c1ncc(-c2ccc3c(c2)Oc2ccc4cc(-c5cnc([C@@H]6CCCN6C[C@@H](NC(=O)OC)C6CCOCC6)[nH]5)ccc4c2[C@@H]3C)[nH]1)C1CCOCC1	=	6

====

# measurement-notes: Inhibition of NS5A in HCV genotype 1a assessed as decrease in viral replication
pEC50: −log10 of the molar value.
// reported pEC50 for each item listed

molecule	pEC50
COC(=O)N[C@H](C(=O)N1CCC[C@H]1c1ncc(-c2ccc3c(c2)C(C)c2ccc4cc(-c5cnc([C@@H]6CCCN6C(=O)[C@@H](NC(=O)OC)C(C)C)[nH]5)ccc4c2O3)[nH]1)C(C)C (stereo not given in full)	11.24
CC[C@@H]1c2ccc(-c3cnc([C@@H]4CCCN4C(=O)[C@@H](NC(=O)OC)C(C)C)[nH]3)cc2Oc2ccc3cc(-c4cnc([C@@H]5CCCN5C(=O)[C@@H](NC(=O)OC)C(C)C)[nH]4)ccc3c21	11.57
COC(=O)N[C@H](C(=O)N1CCC[C@H]1c1nc(-c2ccc3c(c2)O[C@@H](c2ccccc2)n2c-3cc3cc(-c4c[nH]c([C@@H]5CCCN5C(=O)[C@@H](NC(=O)OC)C(C)C)n4)ccc32)c[nH]1)C(C)C [Elbasvir]	11.40
COC(=O)N[C@H](C(=O)N1CCC[C@H]1c1ncc(-c2ccc3c(c2)Oc2ccc4cc(-c5cnc([C@@H]6CCCN6C[C@@H](NC(=O)OC)C6CCOCC6)[nH]5)ccc4c2[C@@H]3C)[nH]1)C1CCOCC1	11.30
COC(=O)N[C@H](C(=O)N1CCC[C@H]1c1ncc(-c2ccc3c(c2)Oc2ccc4cc(-c5cnc([C@@H]6CCCN6C(=O)[C@@H](NC(=O)OC)C(C)C)[nH]5)ccc4c2[C@@H]3C)[nH]1)C(C)C	11.34
COC(=O)N[C@H](C(=O)N1C[C@H](F)C[C@H]1c1ncc(-c2ccc3c(ccc4oc5cc(-c6cnc([C@@H]7C[C@@H](F)CN7C(=O)[C@@H](NC(=O)OC)C(C)C)[nH]6)ccc5c(=O)c43)c2)[nH]1)C(C)C	10.54
COC(=O)N[C@H](C(=O)N1CCC[C@H]1c1ncc(-c2ccc3c(=O)c4cc(-c5cnc([C@@H]6CCCN6C(=O)[C@@H](NC(=O)OC)C(C)C)[nH]5)ccc4oc3c2)[nH]1)C(C)C	11.00
COC(=O)N[C@H](C(=O)N1CCC[C@H]1c1ncc(-c2ccc3c(ccc4oc5cc(-c6cnc([C@@H]7CCCN7C(=O)[C@@H](NC(=O)OC)C7CCOCC7)[nH]6)ccc5c(=O)c43)c2)[nH]1)C1CCOCC1	10.39
COC(=O)N[C@H](C(=O)N1CCC[C@H]1c1ncc(-c2ccc3c(ccc4c(=O)c5cc(-c6cnc([C@@H]7CCCN7C(=O)[C@@H](NC(=O)OC)C(C)C)[nH]6)ccc5oc43)c2)[nH]1)C(C)C	10.70
CC[C@@H]1c2ccc(-c3cnc([C@@H]4CCCN4C(=O)[C@@H](NC(=O)OC)C4CCOCC4)[nH]3)cc2Oc2ccc3cc(-c4cnc([C@@H]5CCCN5C[C@@H](NC(=O)OC)C5CCOCC5)[nH]4)ccc3c21	11.00

====

# measurement-notes: Inhibition of NS5A in HCV genotype 3a assessed as decrease in viral replication
// reported EC50 for each item listed

compound	value-operator	EC50, nM
COC(=O)N[C@H](C(=O)N1CCC[C@H]1c1ncc(-c2ccc3c(c2)Oc2ccc4cc(-c5cnc([C@@H]6CCCN6C[C@@H](NC(=O)OC)C6CCOCC6)[nH]5)ccc4c2[C@H]3C)[nH]1)C1CCOCC1	=	0.04
CC[C@@H]1c2ccc(-c3cnc([C@@H]4CCCN4C(=O)[C@@H](NC(=O)OC)C(C)C)[nH]3)cc2Oc2ccc3cc(-c4cnc([C@@H]5CCCN5C(=O)[C@@H](NC(=O)OC)C(C)C)[nH]4)ccc3c21	=	1.7
CCN(CC)[C@@H](C(=O)N1C[C@H](F)C[C@H]1c1ncc(-c2ccc3c(ccc4oc5cc(-c6cnc([C@@H]7C[C@@H](F)CN7C(=O)[C@@H](c7ccccc7)N(CC)CC)[nH]6)ccc5c(=O)c43)c2)[nH]1)c1ccccc1	=	0.026
COC(=O)N[C@H](C(=O)N1CCC[C@H]1c1ncc(-c2ccc3c(ccc4oc5ccc(-c6cnc([C@@H]7CCCN7C(=O)[C@@H](NC(=O)OC)C(C)C)[nH]6)cc5c(=O)c43)c2)[nH]1)C(C)C	>	1
COC(=O)N[C@H](C(=O)N1CCC[C@H]1c1ncc(-c2ccc3c(c2)Oc2ccc4cc(-c5cnc([C@@H]6CCCN6C(=O)[C@@H](NC(=O)OC)C(C)C)[nH]5)ccc4c2[C@@H]3C)[nH]1)C(C)C	=	1.4
COC(=O)N[C@H](C(=O)N1CCC[C@H]1c1ncc(-c2ccc3c(ccc4oc5cc(-c6cnc([C@@H]7CCCN7C(=O)[C@@H](NC(=O)OC)C7CCOCC7)[nH]6)ccc5c(=O)c43)c2)[nH]1)C1CCOCC1	=	0.72
COC(=O)N[C@H](C(=O)N1CCC[C@H]1c1ncc(-c2ccc3c(c2)Oc2ccc4cc(-c5cnc([C@@H]6CCCN6C(=O)[C@@H](NC(=O)OC)C(C)C)[nH]5)ccc4c2[C@H]3C)[nH]1)C(C)C	=	0.72
COC(=O)N[C@H](C(=O)N1CCC[C@H]1c1ncc(-c2ccc3c(ccc4oc5cc(-c6cnc([C@@H]7CCCN7C(=O)[C@@H](NC(=O)OC)C(C)C)[nH]6)ccc5c(=O)c43)c2)[nH]1)C(C)C	>	1
COC(=O)N[C@H](C(=O)N1CCC[C@H]1c1nc(-c2ccc3c(c2)O[C@@H](c2ccccc2)n2c-3cc3cc(-c4c[nH]c([C@@H]5CCCN5C(=O)[C@@H](NC(=O)OC)C(C)C)n4)ccc32)c[nH]1)C(C)C [Elbasvir]	=	0.02
CC[C@@H]1c2ccc(-c3cnc([C@@H]4CCCN4C(=O)[C@@H](NC(=O)OC)C4CCOCC4)[nH]3)cc2Oc2ccc3cc(-c4cnc([C@@H]5CCCN5C[C@@H](NC(=O)OC)C5CCOCC5)[nH]4)ccc3c21	=	0.2
COC(=O)N[C@H](C(=O)N1C[C@H](F)C[C@H]1c1ncc(-c2ccc3c(ccc4oc5cc(-c6cnc([C@@H]7C[C@@H](F)CN7C(=O)[C@@H](NC(=O)OC)C(C)C)[nH]6)ccc5c(=O)c43)c2)[nH]1)C(C)C	>	1
COC(=O)N[C@H](C(=O)N1C[C@H](F)C[C@H]1c1ncc(-c2ccc3c(ccc4oc5cc(-c6cnc([C@@H]7C[C@@H](F)CN7C(=O)[C@@H](NC(=O)OC)C7CCOCC7)[nH]6)ccc5c(=O)c43)c2)[nH]1)C1CCOCC1	=	5.8
CCC1c2ccc(-c3cnc([C@@H]4CCCN4C(=O)[C@@H](NC(=O)OC)C(C)C)[nH]3)cc2Oc2ccc(-c3cnc([C@@H]4CCCN4C(=O)[C@@H](NC(=O)OC)C(C)C)[nH]3)cc21 (stereo not given in full)	=	0.07
COC(=O)N[C@H](C(=O)N1CCC[C@H]1c1ncc(-c2ccc3c(F)c4oc5ccc(-c6cnc([C@@H]7CCCN7C(=O)[C@@H](NC(=O)OC)C(C)C)[nH]6)cc5c(=O)c4cc3c2)[nH]1)C(C)C	>	1
COC(=O)N[C@H](C(=O)N1CCC[C@H]1c1ncc(-c2ccc3c(c2)Oc2ccc4cc(-c5cnc([C@@H]6CCCN6C[C@@H](NC(=O)OC)C6CCOCC6)[nH]5)ccc4c2C3(C)C)[nH]1)C1CCOCC1	=	0.08
